Biological target: NLRP3 inflammasome (Homo sapiens)
Construct: endogenous in cells
Test: In vitro IL-1β production test (PMA-differentiated THP-1 cells, Nigericin stimulation, AlphaLISA)
Settings: inhibition of IL-1β production; THP-1 cells differentiated with 200 nM PMA; 0.015 mM Nigericin; 2 hours
Method: Human monocyte-derived THP-1 cells were cultured for one day in 10% bovine serum-containing RPMI-1640 medium (Thermo #A10491-01) supplemented with 200 nM phorbol 12-myristate 13-acetate (PMA, Sigma #P8139) to induce differentiation. […] After 2 hours, the culture medium supernatant was collected and the IL-1β protein concentration was measured using the AlphaLISA (registered trademark) assay (PerkinElmer #AL220C). […]
Reported Property: pIC50
Worth noting: pIC50 values are minus log10 of concentrations stated in mol/L.

// pIC50 lookup, molecule = CCN1CCC[C@@H](N2CCc3cc(-c4c(C)cc(C(F)(F)F)cc4O)nnc32)C1 , result: 8.14

// pIC50 lookup, molecule = Cc1cc(C(F)(F)F)cc(O)c1-c1cc2c(nn1)N([C@@H]1C[C@@H](F)CN(C)C1)CC2 , result: 7.13

// pIC50 lookup, molecule = Cc1cc(C(F)(F)F)cc(O)c1-c1cc2c(nn1)c(C1CCCN(C)C1)cn2C (racemic) , result: 7.10

// pIC50 lookup, molecule = Cc1cc(C(F)(F)F)cc(O)c1-c1cc2c(OC(F)F)cn([C@H]3C[C@@](C)(O)C3)c2nn1 , result: 7.70

// pIC50 lookup, molecule = Cc1cc(C(F)(F)F)cc(O)c1-c1cc2c3c(n([C@H]4C[C@@](C)(O)C4)c2nn1)COC3 , result: 8.02

// pIC50 lookup, molecule = Cc1cc(C(F)(F)F)cc(O)c1-c1ccc(CC2CCCN(C)C2)nn1 (racemic) , result: 7.52

// pIC50 lookup, molecule = CCN1CCC[C@@H](N2CCc3cc(-c4c(C)cc(Cl)cc4O)nnc32)C1 , result: 8.21

// pIC50 lookup, molecule = CCc1cc(C)c(-c2cc3c(C)cn([C@H]4C[C@@](C)(O)C4)c3nn2)c(O)c1 , result: 7.15

// pIC50 lookup, molecule = Cc1c(-c2ccc(C(F)(F)F)cc2O)nnc2c1CCN2[C@H]1C[C@@](C)(O)C1 , result: 6.40

// pIC50 lookup, molecule = CCN1CCC[C@@H](n2cc(C#N)c3cc(-c4c(C)cc(C(F)(F)F)cc4O)nnc32)C1 , result: 8.02

// pIC50 lookup, molecule = CCN1CCC[C@@H](n2cc(C)c3cc(-c4c(C)cc(OC(F)F)cc4O)nnc32)C1 , result: 8.09

====

Give pIC50 for every item shown.
target: NLRP3 inflammasome (Homo sapiens, UniProt Q96P20); construct: endogenous in cells; assay: In vitro IL-1β production test (PMA-differentiated THP-1 cells, Nigericin stimulation, AlphaLISA); conditions: inhibition of IL-1β production; THP-1 cells differentiated with 200 nM PMA; 0.015 mM Nigericin; 2 hours
Sequence (Q96P20 whole entry): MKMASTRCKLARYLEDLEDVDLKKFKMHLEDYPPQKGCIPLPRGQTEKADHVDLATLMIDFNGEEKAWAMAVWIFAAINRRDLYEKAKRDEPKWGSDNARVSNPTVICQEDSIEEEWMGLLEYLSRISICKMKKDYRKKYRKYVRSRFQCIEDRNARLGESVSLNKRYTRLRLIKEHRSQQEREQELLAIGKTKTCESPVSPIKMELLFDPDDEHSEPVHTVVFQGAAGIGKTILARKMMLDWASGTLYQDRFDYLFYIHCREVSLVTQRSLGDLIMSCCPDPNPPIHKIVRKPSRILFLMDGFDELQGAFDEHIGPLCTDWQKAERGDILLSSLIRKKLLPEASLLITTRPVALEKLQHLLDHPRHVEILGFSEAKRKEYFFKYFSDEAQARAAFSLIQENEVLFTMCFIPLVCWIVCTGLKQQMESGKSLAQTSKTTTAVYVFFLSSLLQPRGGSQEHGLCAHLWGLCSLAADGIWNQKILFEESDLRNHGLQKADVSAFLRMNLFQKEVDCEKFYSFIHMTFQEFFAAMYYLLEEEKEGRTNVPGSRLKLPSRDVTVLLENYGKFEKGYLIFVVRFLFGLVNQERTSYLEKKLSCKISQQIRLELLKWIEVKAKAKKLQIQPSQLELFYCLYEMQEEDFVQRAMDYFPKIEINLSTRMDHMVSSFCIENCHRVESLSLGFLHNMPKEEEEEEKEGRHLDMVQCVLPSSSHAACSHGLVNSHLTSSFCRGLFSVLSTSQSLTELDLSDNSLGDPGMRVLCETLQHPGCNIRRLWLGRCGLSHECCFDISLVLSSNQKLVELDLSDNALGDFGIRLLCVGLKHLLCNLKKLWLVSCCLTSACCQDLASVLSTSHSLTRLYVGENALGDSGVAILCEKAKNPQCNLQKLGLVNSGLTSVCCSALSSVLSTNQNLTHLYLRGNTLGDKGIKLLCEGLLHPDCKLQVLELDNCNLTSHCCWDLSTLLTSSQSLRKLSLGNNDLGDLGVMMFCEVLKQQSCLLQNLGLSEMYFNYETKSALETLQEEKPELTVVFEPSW
Worth noting: pIC50 values are minus log10 of concentrations stated in mol/L.

# Cc1cc(C(F)(F)F)cc(O)c1-c1cc2c(nn1)N([C@@H]1CCCN(C)C1)CCN2C [Example 35] with NLRP3 inflammasome (Homo sapiens, UniProt Q96P20): pIC50 is 7.59

# Cc1cc(OC(F)F)cc(O)c1-c1cc2c(C#N)cn([C@@H]3CCCN(C(C)C)C3)c2nn1 [Example 68] with NLRP3 inflammasome (Homo sapiens, UniProt Q96P20): pIC50 is 8.22

# Cc1cc(C(F)(F)F)cc(O)c1-c1cc2cccc([C@@H]3CCCN(C)C3)c2nn1 (single isomer, unassigned) [Example 96] with NLRP3 inflammasome (Homo sapiens, UniProt Q96P20): pIC50 is 7.94

# Cc1cc(C(F)(F)F)cc(O)c1-c1cc2c(C)cn([C@H]3C[C@@](C)(O)C3)c2nn1 [Example 4] with NLRP3 inflammasome (Homo sapiens, UniProt Q96P20): pIC50 is 7.70

# Cc1cc(C#N)cc(O)c1-c1cc2c(C)cn([C@H]3C[C@@](C)(O)C3)c2nn1 [Example 52] with NLRP3 inflammasome (Homo sapiens, UniProt Q96P20): pIC50 is 7.41

# Cc1cc(C(F)(F)F)cc(O)c1-c1cc2ccn(-c3ncc(F)cn3)c2nn1 [Example 84] with NLRP3 inflammasome (Homo sapiens, UniProt Q96P20): pIC50 is 7.89

# Cc1cc(C(F)(F)F)c(F)c(O)c1-c1cc2c(C)cn([C@H]3C[C@@](C)(O)C3)c2nn1 [Example 48] with NLRP3 inflammasome (Homo sapiens, UniProt Q96P20): pIC50 is 7.00

# COc1cn([C@H]2C[C@@](C)(O)C2)c2nnc(-c3c(C)cc(Cl)cc3O)cc12 [Example 28] with NLRP3 inflammasome (Homo sapiens, UniProt Q96P20): pIC50 is 7.92

# Cc1cc(C(F)(F)F)cc(O)c1-c1cc2c(C#N)cn([C@H]3C[C@@](C)(O)C3)c2nn1 [Example 45] with NLRP3 inflammasome (Homo sapiens, UniProt Q96P20): pIC50 is 8.06

# Cc1cc(C(F)(F)F)cc(O)c1-c1cc2cc(C)n([C@H]3C[C@@](C)(O)C3)c2nn1 [Example 87] with NLRP3 inflammasome (Homo sapiens, UniProt Q96P20): pIC50 is 7.40

# Cc1c(F)c(C(F)(F)F)cc(O)c1-c1cc2c(C)cn([C@H]3C[C@@](C)(O)C3)c2nn1 [Example 50] with NLRP3 inflammasome (Homo sapiens, UniProt Q96P20): pIC50 is 6.63

# Cc1cc(C(F)(F)F)cc(O)c1-c1cc2ncn([C@@H]3CCCN(C)C3)c2nn1 [Example 32] with NLRP3 inflammasome (Homo sapiens, UniProt Q96P20): pIC50 is 7.51

# Cc1cc(C(F)(F)F)cc(O)c1-c1cc2c(C3CC3)cn([C@H]3C[C@@](C)(O)C3)c2nn1 [Example 46] with NLRP3 inflammasome (Homo sapiens, UniProt Q96P20): pIC50 is 7.04

# Cc1cc(C(F)(F)F)cc(O)c1-c1cc2c(nn1)N(c1ncc(F)cn1)[C@@H]1CCO[C@H]21 (single isomer, unassigned) [Example 98] with NLRP3 inflammasome (Homo sapiens, UniProt Q96P20): pIC50 is 7.86

# Cc1cc(C)c(-c2cc3c(C)cn([C@H]4C[C@@](C)(O)C4)c3nn2)c(O)c1 [Example 90] with NLRP3 inflammasome (Homo sapiens, UniProt Q96P20): pIC50 is 7.25

# CCN1CC2(O)CC(n3cc(C)c4cc(-c5c(C)cc(C(F)(F)F)cc5O)nnc43)(C1)C2 [Example 75] with NLRP3 inflammasome (Homo sapiens, UniProt Q96P20): pIC50 is 7.01

Origin of values: patent US20260226065A1
